# Target Of Assay: rat MCH-1 (Rattus norvegicus, UniProt P97639)
# Sequence (P97639 whole entry): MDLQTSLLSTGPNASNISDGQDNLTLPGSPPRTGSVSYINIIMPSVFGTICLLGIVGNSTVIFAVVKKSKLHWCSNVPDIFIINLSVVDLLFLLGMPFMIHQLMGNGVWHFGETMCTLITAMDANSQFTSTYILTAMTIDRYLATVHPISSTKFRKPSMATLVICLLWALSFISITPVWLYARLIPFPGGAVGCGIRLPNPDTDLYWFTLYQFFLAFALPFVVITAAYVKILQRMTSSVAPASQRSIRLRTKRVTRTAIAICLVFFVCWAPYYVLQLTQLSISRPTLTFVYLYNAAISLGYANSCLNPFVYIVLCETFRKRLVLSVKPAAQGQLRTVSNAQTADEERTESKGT
# Run Description: Radioligand binding assay at cloned rat MCH1 receptor ([3H] Compound A)
# Set-up: host or cells: Peak rapid 293 (Peakr293) cells, transient calcium phosphate transfection, membranes
# Test Context: cloned rat MCH1 receptor; 0.08 nM [3H] Compound A; Peakr293 cell membranes; read-out: Ki (nM) rMCH1
Measurement Kind: Ki (nM)
Give bare numbers, in nM.

compound=CC(C)C(=O)Nc1cccc(C2CCN(Cc3cn(-c4ccccc4)c4cc(Cl)ccc34)CC2)c1 target_of_assay="rat MCH-1 (Rattus norvegicus, UniProt P97639)" measurement_kind=Ki unit_label=nM observed_value=6
compound="COc1ccc(OC(CCCCCN2CCC(c3cccc(NC(=O)C(C)C)c3)CC2)c2ccc(Cl)cc2)cc1 (stereo not drawn)" target_of_assay="rat MCH-1 (Rattus norvegicus, UniProt P97639)" measurement_kind=Ki unit_label=nM observed_value=5.7
compound=Cc1ccc2[nH]c(-c3ccc(C(F)(F)F)cc3)c(CCCN3CCC(c4cccc(NC(=O)C(C)C)c4)CC3)c2c1 target_of_assay="rat MCH-1 (Rattus norvegicus, UniProt P97639)" measurement_kind=Ki unit_label=nM observed_value=41

Please give Ki for each item listed below.
1. CC1=C(C(=O)NCCCN2CCC(c3cccc(NC(=O)C(C)C)c3)CC2)C(c2ccc(F)cc2F)CC(=O)N1 (stereo not drawn)
2. CCC(=O)Nc1cccc(C2CCN(CCCCC(=O)c3cccc(C(F)(F)F)c3)CC2)c1
3. CCC(=O)Nc1cccc(C2CCN(CCCCC(=O)c3cccc(Cl)c3)CC2)c1
4. CC1=C(C(=O)NCCCN2CCC(c3cccc(NC(=O)C(C)C)c3)CC2)C(c2ccc(F)c(F)c2)CC(=O)N1 (stereo not drawn)
5. CC(C)C(=O)Nc1cccc(C2CCN(CCCCC(Oc3ccc(Br)cc3)c3ccc(Cl)cc3)CC2)c1 (stereo not drawn)
6. CC(C)C(=O)Nc1cccc(C2CCN(CCCc3c(-c4ccc(F)cc4)n(C)c4ccccc34)CC2)c1
7. CC(C)C(=O)Nc1cccc(C2CCN(CCCCCCNC(=O)C(c3ccccc3)c3ccccc3)CC2)c1
8. COc1ccc2[nH]c(-c3ccc([N+](=O)[O-])cc3)c(CCCN3CCC(c4cccc(NC(=O)C(C)C)c4)CC3)c2c1

1. 43
2. 88.3
3. 48.1
4. 51.1
5. 11.6
6. 2
7. 29.5
8. 7.9

Please give Ki for each item listed below.
1. CC(C)C(=O)Nc1cccc(C2CCN(Cc3cccc4c3ccn4-c3ccccc3Cl)CC2)c1
2. Cc1ccc(C(=O)CCCN2CCC(c3cccc(NC(=O)C4CC4)c3)CC2)cc1
3. COc1ccc2[nH]c(-c3ccc(Cl)cc3)c(CCCN3CCC(c4cccc(NC(=O)C(C)C)c4)CC3)c2c1
4. CC(C)C(=O)Nc1cccc(C2CCN(CCCc3c(-c4ccccc4Br)[nH]c4c3ccc3ccccc34)CC2)c1

1. 245
2. 75.5
3. 7.7
4. 7.6
